Source of measurements: patent US11866518B2

- TARGET DESC: TSLP (Homo sapiens, UniProt Q969D9)
- Sequence (Q969D9 29-159): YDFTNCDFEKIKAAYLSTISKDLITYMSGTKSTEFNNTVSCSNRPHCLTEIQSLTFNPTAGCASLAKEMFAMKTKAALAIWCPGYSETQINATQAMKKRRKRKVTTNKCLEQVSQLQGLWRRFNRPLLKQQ
- PROTOCOL DETAILS: Human TSLP Surface Plasmon Resonance (SPR) binding assay
- Parameters: The resulting construct spCD33-6×HN-TEV-hTSLP(29-159)-Avi; 6xHN tag with TEV site (N, cleaved yes); made in house; host or cells: Expi293F cells
- MEASUREMENT SETUP: biotinylated human TSLP immobilized on streptavidin chip; 20° C.; steady-state or kinetic 1:1 fit; read-out: hTSLP SPR Kd
MEASURED METRIC: pKd
Scale: negative log10 of molar concentration, which is what pKd denotes.

Please review the entries below; each comes with its answer.
CC(=O)N[C@H]1CSCCC(=O)N2CN3CN(C2)C(=O)CCSC[C@H](NC(=O)[C@H](CC(=O)O)NC(=O)[C@H](CCC(=O)O)NC(=O)[C@H](CC[S+](C)[O-])NC(=O)[C@H](Cc2c[nH]c4ccccc24)NC(=O)[C@H](CCC(N)=O)NC1=O)C(=O)N[C@@H](Cc1c[nH]c2ccccc12)C(=O)N[C@@H](CCCNC(=N)N)C(=O)NCC(=O)N[C@@H](Cc1ccccc1)C(=O)N[C@H](C(N)=O)CSCCC3=O (stereo partly drawn) [Example 147, Ac-(SEQ ID NO: 106)] = 6.03
CC(=O)N[C@H]1CSCCC(=O)N2CN3CN(C2)C(=O)CCSC[C@@H]2NC(=O)[C@H](CC(=O)O)NC(=O)[C@H](CCC(=O)O)NC(=O)[C@H](CC(C)C)NC(=O)[C@H](CCn4cc(nn4)CC[C@H](NC(=O)[C@H](Cc4c[nH]c5ccccc45)NC2=O)C(=O)NCC(=O)N[C@@H](Cc2ccc(F)cc2)C(=O)N[C@H](C(N)=O)CSCCC3=O)NC(=O)[C@H](CCC(N)=O)NC1=O = 5.92

Continue with the next compound.
**Query** For the compound CC(=O)N[C@H]1CSCCC(=O)N2CN3CN(C2)C(=O)CCSC[C@H](NC(=O)[C@H](CC(=O)O)NC(=O)[C@H](CCC(=O)O)NC(=O)[C@H](CC(C)C)NC(=O)[C@H](Cc2c[nH]c4ccccc24)NC(=O)[C@H](CCC(N)=O)NC1=O)C(=O)N[C@@H](Cc1c[nH]c2ccccc12)C(=O)N[C@@H](CCCNC(=N)N)C(=O)NCC(=O)N[C@@H](Cc1cccc(Br)c1)C(=O)N[C@H](C(N)=O)CSCCC3=O [Example 143, Ac-(SEQ ID NO: 102)] , what pKd is on record?
**Result** 6.12
